assay: qHTS assay for cell viability of HEK293 cells (AID 743288); settings: ATP luminescence (CellTiter-Glo), 18 h; stronger effect = lower value; further: on the % scale 0 is the no-effect control and ±100 the full control effect; nearly all actives have a fitted effect of over 50% in size
Inconclusive results are not listed.
readoutName: max response (%)
One number for each entry, in %.

>  <compound>
CO[Si](CCCOCC1CO1)(OC)OC (configuration not stated)

>  <max response / %>
-2.39

$$$$
>  <compound>
CO[Si](OC)(OC)c1ccccc1

>  <max response / %>
-0.551

$$$$
>  <compound>
CCCCCCCCCCCCCO

>  <max response / %>
-5.94

$$$$
>  <compound>
OC1CCCCCCCCCCC1

>  <max response / %>
-8

$$$$
>  <compound>
CC(C)Cc1c(C(=O)O)c(C(F)F)nc(C(F)(F)F)c1C1=NCCS1

>  <max response / %>
-5.4

$$$$

Each compound below has a reported value. Please supply its max response.
1. CC(C)=CCC[C@@H](C)[C@H]1CC[C@@]2(C)C3=C(CC[C@]12C)[C@@]1(C)CC[C@H](O)C(C)(C)[C@@H]1CC3
2. COC(=O)c1cccc(C(=O)OC)c1

Result block:
[-4.2, -8.05]

* * *

target: Tumor susceptibility gene 101 protein (Homo sapiens) (UniProt Q99816); assay: qHTS Assay for Iinhibitors of HIV-1 Budding by Blocking the Interaction of PTAP/TSG101: Hit Validation (AID 651600); settings: PTAP peptide/TSG101 UEV interaction, biochemical assay; series mostly up to 57.5 µM; further: nearly all actives have a fitted effect of over 70% in size
Sequence (Q99816 whole entry, looked up): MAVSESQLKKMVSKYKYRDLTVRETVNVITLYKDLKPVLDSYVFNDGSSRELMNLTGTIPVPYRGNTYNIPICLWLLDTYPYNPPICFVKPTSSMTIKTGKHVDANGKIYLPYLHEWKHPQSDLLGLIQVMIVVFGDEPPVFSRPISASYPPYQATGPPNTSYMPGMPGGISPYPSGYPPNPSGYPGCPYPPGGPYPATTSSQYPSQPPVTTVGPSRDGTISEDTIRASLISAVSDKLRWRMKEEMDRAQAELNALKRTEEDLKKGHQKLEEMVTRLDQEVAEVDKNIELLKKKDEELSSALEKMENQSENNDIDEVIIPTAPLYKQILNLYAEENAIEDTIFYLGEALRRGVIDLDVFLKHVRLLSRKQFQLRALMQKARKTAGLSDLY
Inconclusive results are not listed. Activity calls are given as the source filed them. Calls follow the shape of the dose curve; as a rule, active = well fitted inhibition curve with a large enough effect; inconclusive = small, poorly fitted or top-dose-only effect; inactive = no such curve, though single readings can be large or run the other way.
Classes to choose from: active, inactive

Study these solved cases before continuing.
>  <molecule>
COc1cc(-c2cc(-c3ccc(N)cc3)[nH]c(=O)c2C#N)cc(OC)c1OC

>  <label>
inactive

$$$$
>  <molecule>
CCCCNc1c2c3c(cccc3n(C)c1=O)C(=O)c1ccccc1-2

>  <label>
active

$$$$
>  <molecule>
C=C1CCN(c2ccc(C(=O)O)cc2[N+](=O)[O-])CC1

>  <label>
inactive

$$$$
>  <molecule>
CCCCC(=O)NC1=NC(=O)C(C)(C)S1

>  <label>
inactive

$$$$

Query block: Per the assay record, what outcome was assigned to CN(C)c1ccc(/C=C2\SC(=O)N(CC(O)Cn3c4ccccc4c4ccccc43)C2=O)cc1 (configuration not stated) ?
Result block: active

Query block: Per the assay record, what outcome was assigned to CN1CCc2c(sc(NC(=O)CSc3ccc(F)cc3)c2-c2nc3ccccc3s2)C1 ?
Result block: inactive

Query block: Per the assay record, what outcome was assigned to Oc1oc(-c2ccccc2)nc1C=Nc1cccc2ccccc12 ?
Result block: inactive

* * *

Target: Cytochrome P450 3A4 (Homo sapiens) (UniProt P08684)
Sequence (P08684 whole entry, looked up): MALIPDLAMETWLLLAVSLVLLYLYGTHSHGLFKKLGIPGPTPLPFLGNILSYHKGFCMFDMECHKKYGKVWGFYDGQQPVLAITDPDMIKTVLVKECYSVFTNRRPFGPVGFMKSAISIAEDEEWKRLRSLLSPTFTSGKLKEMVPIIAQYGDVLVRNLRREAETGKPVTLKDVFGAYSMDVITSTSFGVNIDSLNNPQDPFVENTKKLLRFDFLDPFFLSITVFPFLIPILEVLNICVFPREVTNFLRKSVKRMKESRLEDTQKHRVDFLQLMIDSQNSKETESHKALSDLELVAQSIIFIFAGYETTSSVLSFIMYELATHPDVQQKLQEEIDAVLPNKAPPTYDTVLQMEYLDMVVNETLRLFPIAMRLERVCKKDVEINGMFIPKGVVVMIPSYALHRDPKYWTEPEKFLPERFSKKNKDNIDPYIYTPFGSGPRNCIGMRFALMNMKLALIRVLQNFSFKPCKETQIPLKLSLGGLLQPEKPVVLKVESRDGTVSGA
Test: qHTS Assay for Inhibitors and Substrates of Cytochrome P450 3A4 (AID 884); further: nearly all actives have a fitted effect of over 50% in size
Conditions: recombinant CYP3A4, Luciferin-PPXE luminescence; series mostly up to 57.1 µM
Method: NIH Molecular Libraries Screening Centers Network [MLSCN] NIH Chemical Genomics Center [NCGC] The P450 gene superfamily is involved in the metabolism and clearance of xenobiotics. […] The luciferin is then measured by luminescence after the addition of a luciferase detection reagent. […] Inhibitors and some substrates limit the production of luciferin, and decrease measured luminescence. […]
Records with an inconclusive call do not appear. Active and inactive are the calls of the source. Calls come from the whole dose curve; as a rule, active = well fitted inhibition curve with a large enough effect; inconclusive = small, poorly fitted or top-dose-only effect; inactive = no such curve, though single readings can be large or run the other way.
Classes to choose from: y = active, n = inactive

Study these solved cases before continuing.
>  <compound>
COC(=O)c1ccc(C(NC(=O)OCc2ccccc2)/C(F)=C/[C@@H](C)C(=O)NC2CCCCC2)cc1 (some centres not stated)

>  <label>
y

$$$$
>  <compound>
CCCNC(=O)OC[C@@H]1O[C@H](CCO/N=C\C[C@H]2C=C[C@H](OC(C)=O)[C@@H](COC(C)=O)O2)C=C[C@@H]1Oc1ccc(OC)cc1

>  <label>
y

$$$$

Query block: Per the assay record, what outcome was assigned to COC(=O)c1cccc(C23CC4(C2)[C@H](CN(C)[C@@H]4c2ccccc2)C3c2ccccc2)c1 (some centres not stated) ?
Result block: y

* * *

tested on: CP203; test: qHTS profiling for inhibitors of Plasmodium falciparum proliferation (AID 504749); further: nearly all actives have a fitted effect of over 60% in size; conditions: P. falciparum in erythrocytes, SYBR Green DNA, 72 h; series mostly up to 28.7 µM
Results filed as inconclusive are left out. Active and inactive are the calls of the source. Calls come from the whole dose curve; as a rule, active = well fitted inhibition curve with a large enough effect; inconclusive = small, poorly fitted or top-dose-only effect; inactive = flat fitted curve, though single readings scatter. Numbered stars: 1 amine (or outer) side, 2 acyl side, 3 side chain; on linkers, the order of the positions; unused ones are H or OH. Bridge positions count the residues as written; N and C are the ends. Square brackets hold non-standard residues; d marks the D form. Peptide text beside a SMILES is read from it. * marks the point of attachment. ξ: configuration not given here. ΔAla(Z-3-ureido) = NC(=O)N/C=C(\N)C(=O)O; ξDab(CH2SO3H) = NC(CCNCS(=O)(=O)O)C(=O)O; X2 = NC1=NC(O)CC(C(N[*:1])C(=O)[*:2])N1; Heptanoyl(6-Me) = CC(C)CCCCC(=O)*; ξβ3hOrn = NCCCC(N)CC(=O)*; Dab = NCC[CH](N)C(=O)O; Dap = NC[CH](N)C(=O)O
Classes to choose from: active, inactive

Study these solved cases before continuing.
>  <compound>
CCOC(=O)C(CS)NCCN[C@@H](CS)C(=O)OCC (some centres not stated)

>  <label>
inactive

$$$$
>  <compound>
O=C(OCC1OC(OC(=O)c2cc(O)c(O)c(OC(=O)c3cc(O)c(O)c(O)c3)c2)[C@@H](OC(=O)c2cc(O)c(O)c(OC(=O)c3cc(O)c(O)c(O)c3)c2)C(OC(=O)c2cc(O)c(O)c(OC(=O)c3cc(O)c(O)c(O)c3)c2)C1OC(=O)c1cc(O)c(O)c(OC(=O)c2cc(O)c(O)c(O)c2)c1)c1cc(O)c(O)c(OC(=O)c2cc(O)c(O)c(O)c2)c1 (some centres not stated)

>  <label>
active

$$$$
>  <compound>
NCCCC(N)CC(=O)NC1CNC(=O)C(C2CC(O)N=C(N)N2)NC(=O)/C(=C/NC(N)=O)NC(=O)C(CO)NC(=O)C(CO)NC1=O (stereo not drawn) (ξβ3hOrn-[Dap]SS[ΔAla(Z-3-ureido)][X2]; lactam 1-C; configuration not given here)

>  <label>
inactive

$$$$
>  <compound>
CC(=O)OCC(=O)[C@@]1(O)CCC2C3CCC4=CC(=O)CC[C@]4(C)C3=CC[C@@]21C (some centres not stated)

>  <label>
inactive

$$$$
>  <compound>
O=C1/C(=C\c2cccs2)CCC/C1=C/c1cccs1

>  <label>
inactive

$$$$
>  <compound>
C=CC1=C(C(=O)O)N2C(=O)[C@@H](NC(=O)C(N=O)c3csc(N)n3)[C@H]2SC1 (some centres not stated)

>  <label>
inactive

$$$$

Query block: Per the assay record, what outcome was assigned to CCC(C)C1NC(=O)C(CCNCS(=O)(=O)O)NC(=O)C(NC(=O)C(CCNCS(=O)(=O)O)NC(=O)C(NC(=O)C(CCNCS(=O)(=O)O)NC(=O)CCCCC(C)C)C(C)O)CCNC(=O)C(C(C)O)NC(=O)C(CCNCS(=O)(=O)O)NC(=O)C(CCNCS(=O)(=O)O)NC(=O)C(C(C)CC)NC1=O (configuration not stated) ({Heptanoyl(6-Me)}-[ξDab(CH2SO3H)]T[ξDab(CH2SO3H)][Dab][ξDab(CH2SO3H)]II[ξDab(CH2SO3H)][ξDab(CH2SO3H)]T; lactam 4-C; configuration not given here) ?
Result block: inactive

* * *

molecular target: Cytochrome P450 3A4 (Homo sapiens) (UniProt P08684); assay: qHTS Assay for Inhibitors and Substrates of Cytochrome P450 3A4 (AID 884); settings: recombinant CYP3A4, Luciferin-PPXE luminescence; series mostly up to 57.1 µM; further: nearly all actives have a fitted effect of over 50% in size
Records with an inconclusive call do not appear. The source made the active and inactive calls. The call rests on the fitted dose curve; in most records, active means well fitted inhibition curve with a large enough effect; inconclusive means small, poorly fitted or top-dose-only effect; inactive means no such curve, though single readings can be large or run the other way.
Classes to choose from: label 1 = active, label 0 = inactive

Study these solved cases before continuing.
>  <molecule>
CCC1OC(=O)C(C)[C@@H](O[C@H]2C[C@@](C)(OC)C(O)C(C)O2)C(C)[C@@H](O[C@@H]2OC(C)CC(N(C)C)C2O)[C@@](C)(O)CC(C)C2NC(COCCOC)O[C@H](C2C)[C@@]1(C)O (stereo partly drawn)

>  <system>
Cytochrome P450 3A4 (Homo sapiens) (UniProt P08684)

>  <label>
label 0

$$$$
>  <molecule>
COC(=O)c1ccc(C(NC(=O)OCc2ccccc2)/C(=C/[C@@H](C)C(=O)NCc2nc3ccccc3s2)c2cccnc2)cc1 (stereo partly drawn)

>  <system>
Cytochrome P450 3A4 (Homo sapiens) (UniProt P08684)

>  <label>
label 1

$$$$
>  <molecule>
C=CCC(O)CC1C2C(CC(O)CC=C)C3C1C3C2OC(C)(C)C (stereo not drawn)

>  <system>
Cytochrome P450 3A4 (Homo sapiens) (UniProt P08684)

>  <label>
label 1

$$$$
>  <molecule>
Clc1ccc2nc(-c3ccccc3)[nH]c2c1

>  <system>
Cytochrome P450 3A4 (Homo sapiens) (UniProt P08684)

>  <label>
label 1

$$$$
>  <molecule>
COC(=O)[C@@H]1C[C@@]2(O)[C@@H](O)[C@@H](O)[C@@H](O)C[C@H]2N1Cc1ccc(N2CCOCC2)cc1

>  <system>
Cytochrome P450 3A4 (Homo sapiens) (UniProt P08684)

>  <label>
label 0

$$$$

Query block: Per the assay record, what outcome was assigned to CC(Cc1ccccc1)C(=O)NCCO (stereo not drawn) ?
Result block: label 1

Query block: Per the assay record, what outcome was assigned to O=c1cc(-c2cccc(O)c2)oc2cccc(O)c12 ?
Result block: label 1
